test system: Plasma; test: Plasma concentration in Sprague-Dawley rat assessed as 6-(4-chlorophenyl)-3-(4-(2-hydroxy-2-methylpropoxy)-3-methoxyphenyl)pyrrolo[1,2-f][1,2,4]triazin-4(3H)-one level at 10 mg/kg, po qd at 8 hrs; type: ADME, organism-based; details: in vivo
endpoint: concentration (µM)

1) COc1cc(-n2cnn3cc(-c4ccc(Cl)cc4)cc3c2=O)ccc1OCC(C)(C)OC(=O)CN; 0.903

* * *

Attribute: pIC50
biological target: Voltage-gated inwardly rectifying potassium channel KCNH2 (Homo sapiens); assay: Inhibition of human ERG by flux assay
Sequence (Q12809 whole entry): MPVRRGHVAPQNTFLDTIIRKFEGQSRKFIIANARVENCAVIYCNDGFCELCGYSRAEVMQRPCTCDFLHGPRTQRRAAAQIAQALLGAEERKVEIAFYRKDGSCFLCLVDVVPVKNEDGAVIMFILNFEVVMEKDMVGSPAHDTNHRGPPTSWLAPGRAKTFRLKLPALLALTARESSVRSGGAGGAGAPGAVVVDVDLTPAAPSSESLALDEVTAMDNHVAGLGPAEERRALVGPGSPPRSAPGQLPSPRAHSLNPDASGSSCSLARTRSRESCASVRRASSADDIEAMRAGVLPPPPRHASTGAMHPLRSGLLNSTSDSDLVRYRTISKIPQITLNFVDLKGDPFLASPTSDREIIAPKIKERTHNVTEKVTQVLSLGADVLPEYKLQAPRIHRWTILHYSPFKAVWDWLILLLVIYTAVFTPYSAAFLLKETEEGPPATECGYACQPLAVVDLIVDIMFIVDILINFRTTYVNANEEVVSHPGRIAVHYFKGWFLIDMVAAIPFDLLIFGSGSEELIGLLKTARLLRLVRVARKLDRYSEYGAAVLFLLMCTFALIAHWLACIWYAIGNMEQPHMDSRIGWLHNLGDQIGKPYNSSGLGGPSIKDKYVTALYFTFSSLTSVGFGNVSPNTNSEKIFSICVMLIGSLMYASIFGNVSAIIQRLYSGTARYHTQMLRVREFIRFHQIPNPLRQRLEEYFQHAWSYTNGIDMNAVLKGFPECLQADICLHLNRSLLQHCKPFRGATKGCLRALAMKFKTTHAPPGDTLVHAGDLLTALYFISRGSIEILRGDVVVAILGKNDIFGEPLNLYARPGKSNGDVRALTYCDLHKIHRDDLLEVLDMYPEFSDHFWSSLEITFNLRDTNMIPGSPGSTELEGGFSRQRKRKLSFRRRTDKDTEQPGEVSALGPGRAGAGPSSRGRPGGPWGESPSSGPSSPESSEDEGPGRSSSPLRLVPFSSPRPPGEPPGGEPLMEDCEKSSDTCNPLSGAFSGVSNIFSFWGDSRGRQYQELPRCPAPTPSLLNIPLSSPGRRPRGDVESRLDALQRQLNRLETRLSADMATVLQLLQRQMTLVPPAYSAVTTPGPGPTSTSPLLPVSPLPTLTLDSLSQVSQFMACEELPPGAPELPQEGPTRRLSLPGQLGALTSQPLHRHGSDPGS
pIC50: −log10 of the molar value.
endpoint: pIC50

1. O=c1c2cc(-c3ccc(Cl)cc3)cn2ncn1-c1ccc(N2CC(O)C2)nc1; 5.48
2. O=c1c2cc(-c3ccc(Cl)cc3)cn2ncn1-c1ccc(N2CCC(N3CC(O)C3)C2)nc1 (centres undefined); 5.70
3. COc1cc(-n2cnn3cc(-c4ccc(Cl)cc4)cc3c2=O)ccc1OCCN1CCCC1; 5.26
